- Tested on: HCC 2998
- Test Name: NCI tumour cell line growth inhibition, 48 h
Activity calls are given as the source filed them. Cut-off read from the data, not from the text of the source: active = GI50 up to about 1.1 µM and inactive = higher. Square brackets hold non-standard residues; d marks the D form. Peptide text beside a SMILES is read from it. * marks the point of attachment. Phe(4-NO2) = N[CH](Cc1ccc([N+](=O)[O-])cc1)C(=O)O; Cbz = O=C(OCc1ccccc1)*
Quantity: GI50

Suppose we examine the compound CSC1=NN=C(SC)NN1 ; what GI50 value has been reported?
0.378 µM (active)

I am curious: what GI50 value has been reported for COc1cc2c(cc1OC)C1C=NC(C(=O)O)(C2)c2ccccc21 (stereo unspecified) ?
> 10 µM (inactive)

Fill in the blank: the reported GI50 of CCOc1ccc(NC(=O)c2c(N/N=C/c3ccc(OC)cc3)nc(=O)[nH]c2C)cc1 is ____.
> 100 µM (inactive)

Which GI50 reading was recorded for the compound CCOC(=O)CCC(NC(=O)OCc1ccccc1)C(=O)NC(CCC(=O)OCC)C(=O)NC(CCC(=O)OCC)C(=O)NC(CCC(=O)OCC)C(=O)NC(CCC(=O)OCC)C(=O)NC(Cc1ccc([N+](=O)[O-])cc1)C(=O)NC(CCC(=O)OCC)C(=O)NC(CCC(=O)OCC)C(=O)NC(CCC(=O)OCC)C(=O)NC(CCC(=O)OCC)C(=O)NC(CCC(=O)OCC)C(=O)OCC (stereo unspecified) (Cbz-E(OEt)E(OEt)E(OEt)E(OEt)E(OEt)[Phe(4-NO2)]E(OEt)E(OEt)E(OEt)E(OEt)E(OEt)-OEt; configuration not given here) ?
> 50 µM (inactive)

Any idea what its GI50 is? The compound is COc1cc(COC(=O)N(C)[C@@H](Cc2ccccc2)C(=O)O)c([N+](=O)[O-])cc1OC
> 100 µM (inactive)

# GI50 lookup, item COC(=O)C1=NC(=S)NC(c2ccccc2)C1c1nc2ccccc2s1 (stereo unspecified)
> 100 µM (inactive)

----------
Provide the reported GI50 of each item.
- System: HL-60
- Test Name: NCI tumour cell line growth inhibition, 48 h
Activity calls are given as the source filed them. Cut-off read from the data, not from the text of the source: active = GI50 up to about 1.1 µM and inactive = higher.

Identify the measured GI50 of CCOC(=O)C1CC(=O)C=C2CCCCC21 (stereo unspecified) for HL-60.
> 100 µM (inactive)

Any idea what GI50 came out for CN(C)C(=S)/N=c1\ssc(=S)n1C1CCCCC1 on HL-60?
11.2 µM (inactive)

Find the measured GI50: item S=C(/N=C1/NCC(CN2CCN(c3ccccc3)CC2)O1)Nc1ccccc1 (stereo unspecified) , target or system HL-60.
29 µM (inactive)

Report GI50 for COc1ccc(OC)c(/C=N/N=C2\C(=O)Nc3c(Cl)cc(Cl)cc32)c1 tested on HL-60.
43.8 µM (inactive)

Notebook: pull reported GI50 for HL-60, entry CCC(CCCN)Nc1cc(OC)cc2c(C)ccnc12 (stereo unspecified)
12.4 µM (inactive)

Lab request: please report GI50 under test system HL-60 for CCOC(=O)CC(C)C1(C=O)CCCCC1=O (stereo unspecified)
> 100 µM (inactive)

----------
- Tested on: MDA-MB-435
- Test Name: NCI tumour cell line growth inhibition, 48 h
Activity calls are given as the source filed them. Cut-off read from the data, not from the text of the source: active = GI50 up to about 1.1 µM and inactive = higher.
Outcome (select one): t for active, f for inactive

For CCC(C)N1CN(c2ccccc2)C2(CCN(CCCC3(c4ccc(F)cc4)OCCO3)CC2)C1=O (stereo not given) , what call appears in the results of this test?
f

In this assay, the call recorded for Cc1cs/c(=N\C(P(=O)(O)O)P(=O)(O)O)n1C was what?
f

Which outcome was entered for the compound CSc1n[nH]c2c1c(C)nn2-c1ccccc1 in this test?
f

Which outcome did this test record for the compound CCC/N=C/c1cc(Cc2ccc(O)c(/C=N/CCC)c2)ccc1O ?
f

// return assay outcome for Nc1cc(-c2ccc(Cl)cc2)nn1-c1nc2ccccc2nc1-c1ccccc1
f

Dear colleague, could you share the recorded outcome for O=C(OC[C@H]1C[C@H]2C(=O)CCC[C@H]2O1)c1ccccc1 when you have a moment?
f

Dear colleague, could you share the recorded outcome for CCCCCCCCCCCCCCCC[N+](C)(C)CCl when you have a moment?
f

Record lookup: outcome of this test for Cc1cc(C)nc(NS(=O)(=O)c2ccc(NNC(=O)c3cccc4c(=O)c5ccccc5[nH]c34)cc2)n1 ?
f

Dear colleague, could you share the recorded outcome for Cc1ccc(C2=C(Cl)C(=O)C(c3ccc(C)cc3)=C(Cl)C2=O)cc1 when you have a moment?
f

Recorded test outcome, item O=C1/C(=C/c2ccc(Cl)c(Cl)c2)CN(C(=O)CCN2CCOCC2)C/C1=C\c1ccc(Cl)c(Cl)c1
t
